System: Trypanosoma brucei
assayText: DNDI: Inhibition of Human African Trypanosomiasis, SBRI 427, in vitro at 2 ug.mL-1
Type: functional
Hit rate of the full screen: of about 4,400 compounds, about 390 (8.9%) showed an effect of 50% or more. The sample as a whole holds a higher share of strong results than the screen did.
// 0.0 strictly below 10% in % inhibition; 1.0 otherwise

{"columns": ["compound", "systemTested", "discreteLabel"],
 "data": [
  ["O/N=C(\\NCc1ccccc1)c1ccc(Oc2ccc(-n3ccnc3)cc2)nc1", "Trypanosoma brucei", 1.0],
  ["O/N=C(\\NCC1CCCO1)c1ccc(Oc2ccc(-n3ccnc3)cc2)nc1 (stereo not drawn)", "Trypanosoma brucei", 1.0],
  ["c1csc(-c2nc(CNC3CCc4ccccc43)co2)c1 (stereo not drawn)", "Trypanosoma brucei", 0.0],
  ["COc1cccc(-c2nc(CNCc3ccccc3C(F)(F)F)co2)c1", "Trypanosoma brucei", 1.0],
  ["CCOc1ccccc1-c1nc(CN(CC)CCN(CC)CC)co1", "Trypanosoma brucei", 0.0],
  ["O/N=C(\\NC1CCc2ccccc21)c1ccnc(Oc2cccc3cnccc23)c1 (stereo not drawn)", "Trypanosoma brucei", 1.0],
  ["CC(NCc1coc(-c2cccs2)n1)C1CCCCC1 (stereo not drawn)", "Trypanosoma brucei", 0.0],
  ["O/N=C(\\NCc1ccccc1)c1ccc(Oc2ccc(Cl)cc2)nc1", "Trypanosoma brucei", 1.0],
  ["C[C@@H]1C(NCc2coc(-c3cccs3)n2)C[C@H]2C[C@@H]1C2(C)C (stereo partly drawn)", "Trypanosoma brucei", 1.0],
  ["Brc1ccc(-c2nc(CNCCc3ccccn3)co2)cc1", "Trypanosoma brucei", 0.0],
  ["Cc1cc(C)cc(CN/C(=N\\O)c2cccnc2Oc2cccc(C)c2C)c1", "Trypanosoma brucei", 0.0],
  ["O/N=C(\\NCC1CCCCC1)c1ccc(Oc2ccc(F)cc2)nc1", "Trypanosoma brucei", 1.0],
  ["CCOC(=O)C1CCCN(Cc2coc(-c3ccc(Br)cc3)n2)C1 (stereo not drawn)", "Trypanosoma brucei", 0.0],
  ["COc1cc(C)ccc1Oc1nc(C)ccc1/C(=N/O)N1CCCC1", "Trypanosoma brucei", 1.0],
  ["Cc1nccn1/C(=N\\O)c1ccnc(Oc2cccc3cnccc23)c1", "Trypanosoma brucei", 1.0],
  ["C[C@H]1C(NCc2coc(-c3cccs3)n2)C[C@@H]2C[C@H]1C2(C)C (stereo partly drawn)", "Trypanosoma brucei", 1.0],
  ["CCOc1ccc(-c2nc(CNCc3ccc(C(F)(F)F)cc3)co2)cc1", "Trypanosoma brucei", 0.0],
  ["O/N=C(\\NCC1CCCO1)c1ccc(Oc2ccc(Cl)cc2)nc1 (stereo not drawn)", "Trypanosoma brucei", 1.0],
  ["CSc1ccc(Oc2nc(C)ccc2/C(=N/O)N2C(C)C=CC2C)cc1 (stereo not drawn)", "Trypanosoma brucei", 0.0],
  ["O/N=C(\\NCc1ccncc1)c1ccc(Oc2ccc(Cl)cc2)nc1", "Trypanosoma brucei", 0.0],
  ["CC(C)c1ccc(Oc2ncccc2/C(=N/O)NCc2ccncc2)cc1", "Trypanosoma brucei", 0.0]
]}

###

Test system: Trypanosoma brucei
assayText: DNDI: Inhibition of Human African Trypanosomiasis, SBRI 427, in vitro at 2 ug.mL-1
Assay type: functional
In all, about 4,400 compounds went through this assay and about 390 (8.9%) showed an effect of 50% or more. The sample as a whole holds a higher share of strong results than the screen did.
Label Criterion met when % inhibition is at or above 20%; otherwise label Criterion not met.

{"columns": ["compound", "systemTested", "discreteLabel"],
 "data": [
  ["CCOc1ccc(-c2nc(CN3CC(C)OC(C)C3)co2)cc1 (stereo not given)", "Trypanosoma brucei", "Criterion not met"],
  ["CCN(CC)CCN(C)Cc1coc(-c2cccs2)n1", "Trypanosoma brucei", "Criterion not met"],
  ["c1ccc2c(-c3nc(CN4CCC(N5CCCC5)CC4)co3)cccc2c1", "Trypanosoma brucei", "Criterion met"],
  ["CC1CC(NCc2coc(-c3ccc(C(F)(F)F)cc3)n2)CC(C)(C)C1 (stereo not given)", "Trypanosoma brucei", "Criterion met"],
  ["Cc1ccc(/C(=N/O)NCc2c(F)cccc2F)c(OCc2ccc(C(C)C)cc2)n1", "Trypanosoma brucei", "Criterion not met"],
  ["CCOc1ccccc1N(Cc1ccccc1)Cc1coc(-c2cccc(F)c2)n1", "Trypanosoma brucei", "Criterion not met"],
  ["CC1CN(Cc2coc(-c3ccc(C(F)(F)F)cc3)n2)CC(C)O1 (stereo not given)", "Trypanosoma brucei", "Criterion not met"],
  ["CCOc1ccc(-c2nc(CNC3CC(C)CC(C)(C)C3)co2)cc1 (stereo not given)", "Trypanosoma brucei", "Criterion met"],
  ["COC(=O)c1cn(Cc2coc(-c3ccc(Br)cc3)n2)cn1", "Trypanosoma brucei", "Criterion not met"]
]}

###

Tested on: Trypanosoma brucei
assayText: DNDI: Inhibition of Human African Trypanosomiasis, SBRI 427, in vitro at 2 ug.mL-1
Type: functional
About 390 (8.9%) of roughly 4,400 compounds showed an effect of 50% or more. Shown is part of a subset that was picked to be rich in strong results.
reportedEndpoint: % inhibition (%)

{"columns": ["compound", "reportedEndpoint", "observedResult"],
 "data": [
  ["Cc1ccc(Oc2nc(C)ccc2/C(=N/O)N2CCN(c3ccccc3)CC2)c(C)c1", "% inhibition", 15],
  ["COc1ccccc1CN/C(=N\\O)c1ccc(C)nc1Oc1cc(Cl)ccc1Cl", "% inhibition", 100],
  ["Cc1cc(C)cc(CN/C(=N\\O)c2cccnc2OCC(C)(C)C)c1", "% inhibition", -8],
  ["CCOc1ccccc1-c1nc(CN2CCN(CC)CC2)co1", "% inhibition", 16],
  ["Fc1cccc(-c2nc(CNC3CCc4ccccc43)co2)c1 (stereo not given)", "% inhibition", 13],
  ["C[C@@H]1C(NCc2coc(-c3cccc(F)c3)n2)C[C@H]2C[C@@H]1C2(C)C (stereo not given in full)", "% inhibition", 90],
  ["C[C@H]1C(NCc2coc(-c3cccc(F)c3)n2)C[C@@H]2C[C@H]1C2(C)C (stereo not given in full)", "% inhibition", 99],
  ["CSCCN/C(=N\\O)c1cccnc1OCC(C)C", "% inhibition", -5],
  ["CN(C)CCNCc1coc(-c2cccc3ccccc23)n1", "% inhibition", 22],
  ["Cc1ccccc1-c1nc(CN(C)C2CCCCC2)co1", "% inhibition", 10],
  ["CCOc1ccccc1-c1nc(CNC23C[C@H]4C[C@@H](C2)C[C@@H](C3)C4)co1", "% inhibition", 9],
  ["CCOc1ccccc1-c1nc(CNc2ccccc2)co1", "% inhibition", 6],
  ["Cc1ccc(/C(=N/O)NCc2c(F)cccc2F)c(Oc2cc(Cl)ccc2Cl)n1", "% inhibition", 35],
  ["O/N=C(/c1cccnc1Oc1ccccc1F)N1CCOCC1", "% inhibition", 13],
  ["COC(=O)C1CCN(/C(=N\\O)c2cccnc2Oc2ccccc2OC)CC1", "% inhibition", 15],
  ["COc1ccccc1CN/C(=N\\O)c1ccc(C)nc1Oc1ccc(F)c(Cl)c1", "% inhibition", 11],
  ["CC(C)COc1ncccc1/C(=N/O)NCC(C)(C)C", "% inhibition", 95],
  ["CCC(CC)CNCc1coc(-c2cccc(F)c2)n1", "% inhibition", 18],
  ["CN(Cc1coc(-c2cccc3ccccc23)n1)C1CCCCC1", "% inhibition", 82],
  ["CSc1ccccc1Oc1ncccc1/C(=N/O)N1CCCCC1", "% inhibition", 8],
  ["Cc1ccc(/C(=N/O)NC2CC2)c(Oc2cccc3cccnc23)n1", "% inhibition", 29],
  ["Cc1ccc(Oc2ccc(/C(=N/O)N3CCN(c4ccccc4)CC3)cn2)c(C)c1", "% inhibition", 18],
  ["Cc1ccc(/C(=N/O)NCc2ccccc2F)c(Oc2cc(Cl)ccc2Cl)n1", "% inhibition", 81],
  ["CC1CC(C)CN(Cc2coc(-c3cccc4ccccc34)n2)C1 (stereo not given)", "% inhibition", 28],
  ["Cc1cc(C)cc(CN/C(=N\\O)c2cccnc2OCC(C)C)c1", "% inhibition", 92],
  ["C[C@H]1C(NCc2coc(-c3cccc4ccccc34)n2)C[C@@H]2C[C@H]1C2(C)C (stereo not given in full)", "% inhibition", 85],
  ["COc1cc(CN(C)Cc2coc(-c3ccccc3C)n2)cc(OC)c1OC", "% inhibition", -15],
  ["COc1ccccc1Oc1ncccc1/C(=N/O)NC1CCCC1", "% inhibition", 99],
  ["CCC(CC)NCc1coc(-c2ccccc2Cl)n1", "% inhibition", -8],
  ["CN(Cc1coc(-c2ccc(Cl)cc2Cl)n1)CC1OCCO1", "% inhibition", 30],
  ["CC(C)COc1ncccc1/C(=N/O)NCc1ccccc1", "% inhibition", 37],
  ["CCOc1ccccc1-c1nc(CN2CCN(C(c3ccccc3)c3ccccc3)CC2)co1", "% inhibition", 5],
  ["O/N=C(\\NCc1ccncc1)c1ccc(Oc2c(F)c(F)cc(F)c2F)nc1", "% inhibition", 6],
  ["Fc1cccc(-c2nc(CNC3C[C@H]4CC[C@@H]3C4)co2)c1 (stereo not given in full)", "% inhibition", -5],
  ["CC1CCc2ccccc2N1/C(=N\\O)c1ccc(Oc2cccc3c2OC(C)(C)C3)nc1 (stereo not given)", "% inhibition", 10],
  ["CN1CCC(N(C)Cc2coc(-c3cccc4ccccc34)n2)CC1", "% inhibition", 69],
  ["CCOc1ccccc1-c1nc(CN(C)C2CCN(C)CC2)co1", "% inhibition", -1],
  ["c1csc(-c2nc(CNCCN3CCOCC3)co2)c1", "% inhibition", -8],
  ["Cc1ccc(C)c(N2CCN(Cc3coc(-c4ccc(OC(F)(F)F)cc4)n3)CC2)c1", "% inhibition", 33],
  ["COc1ccc(-c2nc(CN3CCc4ccccc4C3)co2)cc1", "% inhibition", -8],
  ["O/N=C(\\NC1CC1)c1cccnc1Oc1ccccc1F", "% inhibition", 78],
  ["c1ccc(CNCc2coc(-c3cccc4ccccc34)n2)cc1", "% inhibition", 8],
  ["CSc1ccccc1Oc1ncccc1/C(=N/O)NC1CCCC1", "% inhibition", 99],
  ["COCCN/C(=N\\O)c1cccnc1OCC(C)C", "% inhibition", -7],
  ["Cc1cccc(Oc2ccc(/C(=N/O)n3ccnc3)cn2)c1", "% inhibition", 15]
]}

The reported numbers originate from ChEMBL document CHEMBL1857833.
